Biological target: UniProt:Q7RTT9
Experiment: Induction of human PMAT activity expressed in Xenopus laevis oocytes assessed as induction of inward current at 2.5 mM in NaCl buffer at pH 7.5 by two-microelectrode voltage-clamp method
Assay type: cell-based
Conditions: pH 7.5, 2500 µM
Note to self: Activity under -6 nanoampere means Criterion met, ties and anything higher get Criterion not met.

Exercise: Hello, I'm reviewing records and need to know if Activity of CN1CCC[C@H]1c1cccnc1 [NICOTINE] is below -6 nanoampere. Could you check?
Key: Criterion met

Exercise: Please indicate whether the reported Activity of NC12CC3CC(CC(C3)C1)C2 [AMANTADINE] is strictly below -6 nanoampere.
Key: Criterion met

Exercise: Does CC[N+](CC)(CC)CC [TETRYLAMMONIUM] have Activity strictly under -6 nanoampere?
Key: Criterion not met

Exercise: Say whether its Activity is strictly beneath -6 nanoampere. Entry: NCCc1c[nH]cn1 [HISTAMINE]
Key: Criterion met

Exercise: Say whether its Activity is strictly beneath -6 nanoampere. Entry: "CN1CC=C(c2ccccc2)CC1"
Key: Criterion not met

Exercise: Please determine if CN(C)C(=N)N=C(N)N [METFORMIN] is below -6 nanoampere in terms of Activity.
Key: Criterion not met

###

Molecular target: Equilibrative nucleoside transporter 4 (Homo sapiens, UniProt Q7RTT9)
Sequence (Q7RTT9 whole entry): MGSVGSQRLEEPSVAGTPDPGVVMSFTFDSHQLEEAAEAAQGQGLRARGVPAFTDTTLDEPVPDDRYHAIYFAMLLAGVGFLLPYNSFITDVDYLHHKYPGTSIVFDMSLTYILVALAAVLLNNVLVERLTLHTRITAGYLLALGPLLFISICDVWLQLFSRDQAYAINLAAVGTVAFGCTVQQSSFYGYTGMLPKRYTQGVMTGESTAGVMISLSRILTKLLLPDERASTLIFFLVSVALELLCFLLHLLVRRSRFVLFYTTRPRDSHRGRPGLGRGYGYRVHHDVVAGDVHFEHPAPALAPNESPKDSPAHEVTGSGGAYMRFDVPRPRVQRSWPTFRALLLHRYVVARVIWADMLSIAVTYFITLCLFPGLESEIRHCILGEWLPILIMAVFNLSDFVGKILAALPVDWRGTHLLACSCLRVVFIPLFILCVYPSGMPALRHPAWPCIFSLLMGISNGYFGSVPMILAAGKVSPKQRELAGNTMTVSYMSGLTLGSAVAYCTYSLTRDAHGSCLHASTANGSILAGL
Experiment: Induction of human PMAT activity expressed in Xenopus laevis oocytes assessed as induction of inward current at 2.5 mM in NaCl buffer at pH 6 by two-microelectrode voltage-clamp method
Format: cell-based
Settings: pH 6, 2500 µM
REPORTED METRIC: Activity (nanoampere)
# value in nanoampere; strip the unit string

Exercise: Identify Activity associated with the compound NC12CC3CC(CC(C3)C1)C2 [AMANTADINE]
Key: -21.2

Exercise: State its Activity: NCCc1c[nH]cn1 [HISTAMINE]
Key: -110

Exercise: Give the reported Activity for this compound. CN(C)C(=N)N=C(N)N [METFORMIN]
Key: -38

Exercise: Quick one: give measured Activity for CC[N+](CC)(CC)CC [TETRYLAMMONIUM]
Key: -11.7

Exercise: For "CN1CC=C(c2ccccc2)CC1" , write its Activity.
Key: -62.7

Exercise: Tell us which Activity value is on record for CN1CCC[C@H]1c1cccnc1 [NICOTINE]
Key: -75.7
